- ASSAYED_TARGET: T1, Activin A (Homo sapiens (Human), UniProt P08476 311-426)
- T1 sequence: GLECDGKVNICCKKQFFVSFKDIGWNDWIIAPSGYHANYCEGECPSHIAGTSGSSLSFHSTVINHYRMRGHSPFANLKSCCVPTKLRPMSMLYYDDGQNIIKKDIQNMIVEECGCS
- EXPERIMENT_NOTES: Biacore SPR grade, CHO stable conditioned media, 20 nM activin A
MEASUREMENT_NAME: Normalized SPR

Which value of Normalized SPR has been reported for ActRIIB-IgG1 Fc wild type, linker GGGGS (Fc fusion, Tested from conditioned media) SGRGEAETRECIYYNANWELERTNQSGLERCEGEQDKRLHCYASWRNSSGTIELVKKGCWLDDFNCYDRQECVATEENPQVYFCCCEGNFCNERFTHLPEAGGPEVTYEPPPTAPTGGGGSAPELLGGPSVFLFPPKPKDILMISRTPEVTCVVVDVSHEDPEVKFNWYVGGVEVHNAKTKPREEQYNSTYRVVSVLTVLHQDWLNGKEYKCKVSNKALPAPIEKTISKAKGQPREPQVYTLPPSRDELTKNQVSLTCLVKGFYPSDIAVEWESNGQPENNYKTTPPVLDSDGSFFLYSKLTVDKSRWQQGNVFSCSVMHEALHNHYTQKSLSLSPGK in the records?
40 to 60 ru

Recorded values, source patent US20130288983A1.
